Molecular target: pooled human IgG (human IgG1,2,3 and 4)
PROPERTY: Enzyme Activity Endpoint Assay (purified): Fc (ng/µL)

PROTEIN | VALUE
PRT-489 (protein) MVTSVWTKGVTPPANFTQGEDVFHAPYVANQGWYDITKTFNGKDNLLCGAATAGNMLHWWFDQNKDQIERYLKEHPEKQKIIFNNQELFDLKAAIDTKDSQTDSKLFEYFKEKAFPYLSTKHLGVFPDHVLDMFINGYRLSLTNHGPTPVKEGSKDKRGGIFDAVFTRGVQSKLLTSRHDLKNKTLKEISDLIKQELTEGKALGLSHTYANVRINHVINLWGADFDSEGNLKAIYVTDSDTNASIGMKKYFVGVNSAGKVAISAKEIKEDNIGAQVLGLFTLSTGQDIWNQTNLEHHHHHH | 0
